- Test system: 485176-168-R4-J1-PDC complex spheroid growth
- TEST PROTOCOL: Anticancer human tumor 485176-168-R4-J1-PDC patient-derived pancreatic adenocarcinoma cell line growth inhibition [RAS]
- MEASUREMENT CONDITIONS: second compound 0.0949 µM; first compound 0.316 µM; stronger effect = lower value
MEASUREMENT LABEL: viability, T/C (%)
Record the value in %, omitting the unit from your answer.

Sample records with viability, T/C:
compound="CC(Nc1ccc2c(c1)OCCn1cc(N3C(=O)OCC3C(F)F)nc1-2)C(N)=O (centres undefined) + CCn1c(-c2cc(N3CCN(C)CC3)cnc2C(C)OC)c2c3cc(ccc31)-c1csc(n1)CC(NC(=O)C1CC1C)C(=O)N1CCCC(N1)C(=O)OCC(C)(C)C2" display_unit=% reported=77.1
compound="CC1(O)CCCC1n1c(=O)c(C(F)F)cc2cnc(NC3CCN(S(C)(=O)=O)CC3)nc21 (centres undefined) + CCn1c(-c2cccnc2C(C)OC)c2c3cc(ccc31)N1CCOC(CC(NC(=O)C(C(C)C)N(C)C(=O)C3(F)CCN(C(=O)C#CC(C)(C)N(C)C)CC3)C(=O)N3CCCC(N3)C(=O)OCC(C)(C)C2)C1" display_unit=% reported=69.6
compound="C[C@@H](NC(=O)c1ncnc(N)c1Cl)c1ncc(C(=O)Nc2cc(C(F)(F)F)c(Cl)cn2)s1 + CCn1c(-c2cc(N3CCN(C)CC3)cnc2C(C)OC)c2c3cc(ccc31)-c1csc(n1)CC(NC(=O)C1CC1C)C(=O)N1CCCC(N1)C(=O)OCC(C)(C)C2" display_unit=% reported=59.7

# next compound below
Enquiry: Provide viability, T/C value for the following compound: CC(=O)OC12COC1CC(O)C1(C)C(=O)C(O)C3=C(C)C(OC(=O)C(O)C(NC(=O)OC(C)(C)C)c4ccccc4)CC(O)(C(OC(=O)c4ccccc4)C21)C3(C)C (centres undefined) + CCn1c(-c2cccnc2C(C)OC)c2c3cc(ccc31)N1CCOC(CC(NC(=O)C(C(C)C)N(C)C(=O)C3(F)CCN(C(=O)C#CC(C)(C)N(C)C)CC3)C(=O)N3CCCC(N3)C(=O)OCC(C)(C)C2)C1
Return: 8.86

----------
- System: 485176-168-R4-J1-PDC complex spheroid growth
- TEST PROTOCOL: Anticancer human tumor 485176-168-R4-J1-PDC cell line growth inhibition [RAS];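 further: spheroids exposed to compounds for seven days before readout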
- MEASUREMENT CONDITIONS: curve of first compound; second compound 0.000949 µM
- Source text: RAS pathway inhibitors in Combinations in Complex Spheroids A high-throughput screen of multi-cell type tumor spheroids was designed to identify active combinations of RAS pathway inhibitors and targeted small molecules. Complex spheroids include a stromal component modeled by human endothelial cells (HUVEC) and fibroblasts modeled by human mesenchymal stem cells (MSCs). […] Compounds. […] If the clinical Cmax for an agent had not been determined, the highest concentration tested was 10 microM. […]
MEASUREMENT LABEL: pIC50
On this scale, pIC50 is minus log10 of a concentration expressed in M (mol/L).

Enquiry: Tell me its pIC50 given CC(C)n1nc(-c2ccc3oc(N)nc3c2)c2c(N)ncnc21 + CCn1c(-c2cccnc2C(C)OC)c2c3cc(ccc31)N1CCOC(CC(NC(=O)C(C(C)C)N(C)C(=O)C3(F)CCN(C(=O)C#CC(C)(C)N(C)C)CC3)C(=O)N3CCCC(N3)C(=O)OCC(C)(C)C2)C1 as the entry.
Return: 7.65

----------
- Test system: 485176-168-R4-J1-PDC complex spheroid growth
- TEST PROTOCOL: Anticancer human tumor 485176-168-R4-J1-PDC cell line growth inhibition [RAS];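 further: spheroids exposed to compounds for seven days before readout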;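 on viability, T/C: luminescence viability expressed relative to DMSO vehicle wells set as 100%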
- MEASUREMENT CONDITIONS: second compound 10 µM; first compound 0.01 µM; stronger effect = lower value
MEASUREMENT LABEL: viability, T/C (%)
Please state the figure in %; there is no need to write the unit.

Use the examples below as a reference point.
compound="C=CC(=O)N1CCN(c2nc(OCC3CCCN3C)nc3c(F)c(-c4nc(N)cc(C)c4C(F)(F)F)c(Cl)cc23)C(C)C1 (stereo unspecified) + C#Cc1c(F)ccc2cc(O)cc(-c3ncc4c(N5CC6CCC(C5)N6)nc(OCC56CCCN5CC(F)C6)nc4c3F)c12" target_entity="485176-168-R4-J1-PDC complex spheroid growth" reported=81.8
compound="C=CC(=O)Nc1cc(Nc2nccc(-c3cn(C)c4ccccc34)n2)c(OC)cc1N(C)CCN(C)C + C#Cc1c(F)ccc2cc(O)cc(-c3ncc4c(N5CC6CCC(C5)N6)nc(OCC56CCCN5CC(F)C6)nc4c3F)c12" target_entity="485176-168-R4-J1-PDC complex spheroid growth" reported=86.6
compound="Nc1ccn(C2OC(CO)C(O)C2(F)F)c(=O)n1 (stereo unspecified) + C#Cc1c(F)ccc2cc(O)cc(-c3ncc4c(N5CC6CCC(C5)N6)nc(OCC56CCCN5CC(F)C6)nc4c3F)c12" target_entity="485176-168-R4-J1-PDC complex spheroid growth" reported=71.2
compound="O=C(c1ccc(F)c(F)c1Nc1ccc(I)cc1F)N1CC(O)([C@@H]2CCCCN2)C1 + C#Cc1c(F)ccc2cc(O)cc(-c3ncc4c(N5CC6CCC(C5)N6)nc(OCC56CCCN5CC(F)C6)nc4c3F)c12" target_entity="485176-168-R4-J1-PDC complex spheroid growth" reported=60.1
compound="CCN1CCN(Cc2ccc(Nc3ncc(F)c(-c4cc(F)c5nc(C)n(C(C)C)c5c4)n3)nc2)CC1 + C#Cc1c(F)ccc2cc(O)cc(-c3ncc4c(N5CC6CCC(C5)N6)nc(OCC56CCCN5CC(F)C6)nc4c3F)c12" target_entity="485176-168-R4-J1-PDC complex spheroid growth" reported=95.5

Enquiry: State its viability, T/C for this compound: CC(C)n1nc(-c2ccc3oc(N)nc3c2)c2c(N)ncnc21 + C#Cc1c(F)ccc2cc(O)cc(-c3ncc4c(N5CC6CCC(C5)N6)nc(OCC56CCCN5CC(F)C6)nc4c3F)c12
Return: 68.9

----------
- Test system: 485176-168-R4-J1-PDC complex spheroid growth
- TEST PROTOCOL: Anticancer human tumor 485176-168-R4-J1-PDC cell line growth inhibition [RAS];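 further: spheroids exposed to compounds for seven days before readout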
- MEASUREMENT CONDITIONS: curve of first compound; second compound 0.316 µM
MEASUREMENT LABEL: IC50 (nM)
Could you give me the number in nM? Just the number is fine.

Use these answered entries as a reference point.
compound="Nc1ccn(C2OC(CO)C(O)C2(F)F)c(=O)n1 (stereo unspecified) + C=CC(=O)N1CCN(c2nc(OCC3CCCN3C)nc3c(F)c(-c4nc(N)cc(C)c4C(F)(F)F)c(Cl)cc23)C(C)C1" measurement_label=IC50 display_unit=nM reported=13.7
compound="CCC(CC)c1cc(NC2CCC(N)C2)n2nccc2n1 (stereo unspecified) + C=CC(=O)N1CCN(c2nc(OCC3CCCN3C)nc3c(F)c(-c4nc(N)cc(C)c4C(F)(F)F)c(Cl)cc23)C(C)C1" measurement_label=IC50 display_unit=nM reported=1510
compound="CC1(O)CCCC1n1c(=O)c(C(F)F)cc2cnc(NC3CCN(S(C)(=O)=O)CC3)nc21 (stereo unspecified) + C=CC(=O)N1CCN(c2nc(OCC3CCCN3C)nc3c(F)c(-c4nc(N)cc(C)c4C(F)(F)F)c(Cl)cc23)C(C)C1" measurement_label=IC50 display_unit=nM reported=3650
compound="O=C(c1ccc(F)c(F)c1Nc1ccc(I)cc1F)N1CC(O)([C@@H]2CCCCN2)C1 + C#Cc1c(F)ccc2cc(O)cc(-c3ncc4c(N5CC6CCC(C5)N6)nc(OCC56CCCN5CC(F)C6)nc4c3F)c12" measurement_label=IC50 display_unit=nM reported=231
compound="CC1(O)CCCC1n1c(=O)c(C(F)F)cc2cnc(NC3CCN(S(C)(=O)=O)CC3)nc21 (stereo unspecified) + C#Cc1c(F)ccc2cc(O)cc(-c3ncc4c(N5CC6CCC(C5)N6)nc(OCC56CCCN5CC(F)C6)nc4c3F)c12" measurement_label=IC50 display_unit=nM reported=3630

Enquiry: Tell us which IC50 value is on record for Nc1ccn(C2OC(CO)C(O)C2(F)F)c(=O)n1 (stereo unspecified) + C#Cc1c(F)ccc2cc(O)cc(-c3ncc4c(N5CC6CCC(C5)N6)nc(OCC56CCCN5CC(F)C6)nc4c3F)c12
Return: 14.2

----------
- Test system: 485176-168-R4-J1-PDC complex spheroid growth
- TEST PROTOCOL: Anticancer human tumor 485176-168-R4-J1-PDC cell line growth inhibition [RAS];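 further: spheroids exposed to compounds for seven days before readout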;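 on viability, T/C: luminescence viability expressed relative to DMSO vehicle wells set as 100%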
- MEASUREMENT CONDITIONS: compound 0.1 µM; stronger effect = lower value
Quick list: viability, T/C per entry.

Below, each entry is followed by its recorded viability, T/C result.
compound="CC(=O)OC12COC1CC(O)C1(C)C(=O)C(O)C3=C(C)C(OC(=O)C(O)C(NC(=O)OC(C)(C)C)c4ccccc4)CC(O)(C(OC(=O)c4ccccc4)C21)C3(C)C (centres undefined)" reported="14.3% [middle of 4 runs]"
compound="CC(Nc1ccc2c(c1)OCCn1cc(N3C(=O)OCC3C(F)F)nc1-2)C(N)=O (centres undefined)" reported="89.2% [middle of 4 runs]"
compound=C[C@@H](NC(=O)c1ncnc(N)c1Cl)c1ncc(C(=O)Nc2cc(C(F)(F)F)c(Cl)cn2)s1 reported="96% [middle of 4 runs]"

We now examine a further compound.
Enquiry: Give 485176-168-R4-J1-PDC complex spheroid growth viability, T/C for the following compound: CCC(CC)c1cc(NC2CCC(N)C2)n2nccc2n1 (centres undefined)
Return: 93.7% [middle of 4 runs]
